# system-tested: T1, Sen1 HD wt (Saccharomyces cerevisiae, UniProt Q00416 1095-1905)
# T1 sequence: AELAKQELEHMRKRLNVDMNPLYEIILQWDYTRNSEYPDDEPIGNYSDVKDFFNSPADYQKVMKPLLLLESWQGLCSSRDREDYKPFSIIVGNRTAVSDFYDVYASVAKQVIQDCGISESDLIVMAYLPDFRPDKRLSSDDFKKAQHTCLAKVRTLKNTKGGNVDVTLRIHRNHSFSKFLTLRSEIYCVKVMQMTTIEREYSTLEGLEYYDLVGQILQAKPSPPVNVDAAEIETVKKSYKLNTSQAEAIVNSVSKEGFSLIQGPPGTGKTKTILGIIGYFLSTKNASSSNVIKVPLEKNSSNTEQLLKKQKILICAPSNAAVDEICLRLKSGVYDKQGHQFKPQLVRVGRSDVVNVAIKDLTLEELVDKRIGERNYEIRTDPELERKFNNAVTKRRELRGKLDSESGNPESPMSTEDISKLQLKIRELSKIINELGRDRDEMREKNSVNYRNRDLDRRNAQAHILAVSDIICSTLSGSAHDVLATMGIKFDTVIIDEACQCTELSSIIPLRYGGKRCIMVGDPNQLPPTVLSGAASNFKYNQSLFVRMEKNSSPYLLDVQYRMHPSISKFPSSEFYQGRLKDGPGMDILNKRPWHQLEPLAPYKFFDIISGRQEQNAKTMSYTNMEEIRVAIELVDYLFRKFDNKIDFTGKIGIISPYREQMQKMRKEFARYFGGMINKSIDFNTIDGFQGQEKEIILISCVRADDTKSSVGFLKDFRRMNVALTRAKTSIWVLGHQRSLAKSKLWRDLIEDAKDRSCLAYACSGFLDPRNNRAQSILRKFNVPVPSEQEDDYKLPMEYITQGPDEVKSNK
# measurement-description: EMSA
pKd: −log10 of the molar value.
experimental-endpoint: pKd

• UUCAUUUCAGACCAGCACCCACUCACUACAACUCACGACCAGGC (ssRNA) [DL3508 (called 40-mer RNA; printed sequence is 44 nt)] = 7.88
